# Estimated T½ per record follows
Target: T1, human glycophorin A on human red blood cells or red blood cell membranes (human, UniProt P02724 20-150)
T1 construct: whole, on cells; also called hRBC; human RBC membranes
T1 sequence (looked up): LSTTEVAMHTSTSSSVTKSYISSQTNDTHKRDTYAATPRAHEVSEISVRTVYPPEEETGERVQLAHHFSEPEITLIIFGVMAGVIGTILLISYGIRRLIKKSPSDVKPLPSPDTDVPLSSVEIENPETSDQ
Experiment: SPR (Biacore), Fab on human RBC membranes; T½ = 0.69/kd
recordedMetric: Estimated T½

1. TPP-7789, affinity matured 6C12 Fab (Fab, V domains shown, Tested as Fab) VH: EVQLVQSGAEVKKPGASVKVSCKASGYTFTTYTIHWVRQAPGQGLEWMGYINPSSGYTRYNPKFKHRVTMTRDKSTSTAYMELRSLRSDDTAVYYCWTGTRDYWGQGTTVTVSS VL: DIQLTQSPSFLSASVGDRVTITCRASSSVRYIYWFQQKPGKAPKLLIYATSTLQSGVPSRFSGSGSGTEYTLTISSLQPEDFATYYCHQRNSFPYTFGQGTKLEIK : 90 min
2. TPP-7776, affinity matured 6C12 Fab (Fab, V domains shown, Tested as Fab) VH: EVQLVQSGAEVKKPGASVKVSCKASGYTFTTYAIHWVRQAPGQGLEWMGYINPSSGYTRYNPKFKGRVTMTRDKSTSTAYMELRSLRSDDTAVYYCQTGTRDYWGQGTTVTVSS VL: DIQLTQSPSFLSASVGDRVTITCRASSSVRYIYWFQQKPGKAPKLLIYATSTLRSGVPSRFSGSGSGTEYTLTISSLQPEDFATYYCHQRNSFPYTFGQGTKLEIK : 12 min
3. TPP-7787, affinity matured 6C12 Fab (Fab, V domains shown, Tested as Fab) VH: EVQLVQSGAEVKKPGASVKVSCKASGYTFTTYAIHWVRQAPGQGLEWMGYINPSSGYTRYNPKFKGRVTMTRDKSTSTAYMELRSLRSDDTAVYYCWTGTRDYWGQGTTVTVSS VL: DIQLTQSPSFLSASVGDRVTITCRASSSVSYIYWFQQKPGKAPKLLIYATSTRQSGVPSRFSGSGSGTEYTLTISSLQPEDFATYYCHQRNSFPYTFGQGTKLEIK : 83 min
4. TPP-7788, affinity matured 6C12 Fab (Fab, V domains shown, Tested as Fab) VH: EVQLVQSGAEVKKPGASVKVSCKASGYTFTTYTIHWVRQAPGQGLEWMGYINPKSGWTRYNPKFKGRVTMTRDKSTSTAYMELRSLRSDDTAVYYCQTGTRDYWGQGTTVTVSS VL: DIQLTQSPSFLSASVGDRVTITCRASSSVSYIYWFQQKPGKAPKLLIYATSFRQSGVPSRFSGSGSGTEYTLTISSLQPEDFATYYCHQRNSFPYTFGQGTKLEIK : 28 min
